Data origin: patent US20230123104A1

# Test system: multiple myeloma cell line MM.1S
# MEASUREMENT DESCRIPTION: Antiproliferative effect, CellTiter-Glo cell viability assay, MM.1S
# Format: cell-based, human
# ASSAY CONDITIONS: Homo sapiens, MM1.S, 120 h, co-incubated 5 days, CellTiter-Glo
PROPERTY NAME: IC50 (pM)
Write the answer as a number in pM, unit excluded.

Query :: I would be grateful if you could share the reported IC50 for O=C1CCC(c2noc3ccc4[nH]ccc4c23)C(=O)N1 (stereo not shown) .
Result :: 400
